FYI, the data here is from PubChem BioAssay AID2305.

Test system: P. falciparum 3D7 growth, pLDH absorbance
procedure-details: blood-stage malaria parasite growth potency – strain 3D7, dose response (AID 2305)
So basically every entry gets a class from its IC50, ranges being bottom range = under 300 nM, center range = from 300 nM up to 900 nM, top range = 900 nM and over

{"compound": "Cc1ccccc1C1CCN(C2CCC(NC(=O)/C=C/c3cc(F)ccc3C(F)(F)F)CC2)CC1 (centres undefined)", "target-or-system": "P. falciparum 3D7 growth, pLDH absorbance", "category": "top range"}
{"compound": "CCc1sc(-c2cc(Cl)ccc2OC)nc1C(=O)NCCN1CCCCC1", "target-or-system": "P. falciparum 3D7 growth, pLDH absorbance", "category": "top range"}
{"compound": "COc1cc(NCC(O)CNc2cc(Cl)nc3ccccc23)nc2ccccc12 (centres undefined)", "target-or-system": "P. falciparum 3D7 growth, pLDH absorbance", "category": "center range"}
{"compound": "COc1ccc(Cl)cc1NC(=O)Nc1cc(C)nc2ccccc12", "target-or-system": "P. falciparum 3D7 growth, pLDH absorbance", "category": "bottom range"}
{"compound": "COc1ccc2nccc([C@@H](O)CN3CCC(NCc4cc5cccc(O)c5[nH]4)CC3)c2c1", "target-or-system": "P. falciparum 3D7 growth, pLDH absorbance", "category": "center range"}
{"compound": "Cc1ccc(C(=O)Nc2ccc(Nc3ccnc4cc(-c5ccccn5)ccc34)cc2O)cc1", "target-or-system": "P. falciparum 3D7 growth, pLDH absorbance", "category": "bottom range"}
{"compound": "O=C(COc1ccc(Cl)c(Cl)c1)NCCCCCN1CCCN(C(=O)Nc2cc(Cl)cc(Cl)c2)CC1", "target-or-system": "P. falciparum 3D7 growth, pLDH absorbance", "category": "top range"}
{"compound": "CCn1c(-c2nonc2N)nc2cnc(Oc3cccc(NC(=O)c4ccc(OCCCN5CCCCC5)cc4)c3)cc21", "target-or-system": "P. falciparum 3D7 growth, pLDH absorbance", "category": "top range"}

API: the following record is the query input.
Request: Kindly identify the class of C/C=C1\CN2CC[C@H]1C[C@@H]2[C@@H](O)c1ccnc2ccc(O)cc12 .
Result: bottom range

###

Test system: P. falciparum 3D7 growth, pLDH absorbance
procedure-details: blood-stage malaria parasite growth potency – strain 3D7, dose response (AID 2305)
Binary call on IC50 with cut-off 800 nM: strictly below means t, and equality or higher means f.

# count of solved cases: 3
{"compound": "CN(C(=O)NCCc1ccccc1)C1CCN(CCCCCNC(=O)/C=C/c2ccc(Cl)c(Cl)c2)CC1", "category": "t"}
{"compound": "FC(F)(F)c1ccc(-c2cncc(-c3ccc(C(F)(F)F)cc3)n2)cc1", "category": "t"}
{"compound": "COc1ccc(-c2nc3ccc(C)nc3nc2-c2ccc(OC)cc2)cc1", "category": "f"}

Request: For this compound, is IC50 lower than 800 nM? CN(C)Cc1ccc2cc(NC(=O)c3ccc(-c4ccc(Cl)cc4)cc3)ccc2c1
Result: f

Request: For this compound, is IC50 lower than 800 nM? COC(=O)/C=C/C(=O)N[C@@H]1CC[C@@]2(O)[C@H]3Cc4ccc(O)c5c4[C@@]2(CCN3CC2CC2)[C@H]1O5
Result: t

Request: For this compound, is IC50 lower than 800 nM? COc1cc(NC2CCCC(NCc3cn(S(=O)(=O)c4ccccc4)c4ccccc34)C2)nc2ccccc12 (centres undefined)
Result: t

Request: For this compound, is IC50 lower than 800 nM? CCCc1cn2c3c(cc(C(=O)N[C@@H](Cc4ccccc4)[C@H](O)CNC4CCOCC4)cc13)N(C)S(=O)(=O)CC2
Result: t

Request: For this compound, is IC50 lower than 800 nM? COc1ccccc1NC(=O)Nc1cccc(-c2cccc(-c3nc4ccc(C(F)(F)F)cc4[nH]3)c2)c1
Result: t

Request: For this compound, is IC50 lower than 800 nM? Clc1ccc(-c2cc3c(NCc4ccncc4)nccc3s2)cc1
Result: f

Request: For this compound, is IC50 lower than 800 nM? CNC(=O)CNC(=O)COc1cccc2ccccc12
Result: t

Request: For this compound, is IC50 lower than 800 nM? FC(F)(F)c1ccc2nc(-c3ccc(-c4ccc(CNCc5ccccc5)cc4)cc3)[nH]c2c1
Result: t

Request: For this compound, is IC50 lower than 800 nM? O=C(Nc1ccc(-c2ccccc2)cc1)Nc1cccc(Cn2nc(Cl)c(N3CCCNCC3)cc2=O)c1
Result: t

Request: For this compound, is IC50 lower than 800 nM? CC(=O)N1CCN(c2ccc(NC(=O)c3oc(-c4ccccc4)nc3C(F)(F)F)cn2)CC1
Result: f

Request: For this compound, is IC50 lower than 800 nM? CCCNC(=O)c1cncc(-c2ccc(CNC(CC)c3ccccc3)cc2)c1 (centres undefined)
Result: f

Request: For this compound, is IC50 lower than 800 nM? OCCc1ccc(Nc2nccc(-c3nnc4ccccn34)n2)cc1
Result: f

Request: For this compound, is IC50 lower than 800 nM? Nc1ncc(-c2ccc3[nH]ccc3c2)c2ccc(-c3ccncc3)cc12
Result: t

Request: For this compound, is IC50 lower than 800 nM? COc1ccc(CNCc2ccc(F)cc2)cc1-c1ccc(S(=O)(=O)NCCN2CCCC2)cc1
Result: f

Request: For this compound, is IC50 lower than 800 nM? O=c1cc(NCCCNC(CNCCc2ccccc2)c2cc(Br)cc(Br)c2)[nH]c2ccccc12 (centres undefined)
Result: f
